system_under_test: PI3Kβ (Homo sapiens)
Construct: made in house
Sequence (P42338 whole entry): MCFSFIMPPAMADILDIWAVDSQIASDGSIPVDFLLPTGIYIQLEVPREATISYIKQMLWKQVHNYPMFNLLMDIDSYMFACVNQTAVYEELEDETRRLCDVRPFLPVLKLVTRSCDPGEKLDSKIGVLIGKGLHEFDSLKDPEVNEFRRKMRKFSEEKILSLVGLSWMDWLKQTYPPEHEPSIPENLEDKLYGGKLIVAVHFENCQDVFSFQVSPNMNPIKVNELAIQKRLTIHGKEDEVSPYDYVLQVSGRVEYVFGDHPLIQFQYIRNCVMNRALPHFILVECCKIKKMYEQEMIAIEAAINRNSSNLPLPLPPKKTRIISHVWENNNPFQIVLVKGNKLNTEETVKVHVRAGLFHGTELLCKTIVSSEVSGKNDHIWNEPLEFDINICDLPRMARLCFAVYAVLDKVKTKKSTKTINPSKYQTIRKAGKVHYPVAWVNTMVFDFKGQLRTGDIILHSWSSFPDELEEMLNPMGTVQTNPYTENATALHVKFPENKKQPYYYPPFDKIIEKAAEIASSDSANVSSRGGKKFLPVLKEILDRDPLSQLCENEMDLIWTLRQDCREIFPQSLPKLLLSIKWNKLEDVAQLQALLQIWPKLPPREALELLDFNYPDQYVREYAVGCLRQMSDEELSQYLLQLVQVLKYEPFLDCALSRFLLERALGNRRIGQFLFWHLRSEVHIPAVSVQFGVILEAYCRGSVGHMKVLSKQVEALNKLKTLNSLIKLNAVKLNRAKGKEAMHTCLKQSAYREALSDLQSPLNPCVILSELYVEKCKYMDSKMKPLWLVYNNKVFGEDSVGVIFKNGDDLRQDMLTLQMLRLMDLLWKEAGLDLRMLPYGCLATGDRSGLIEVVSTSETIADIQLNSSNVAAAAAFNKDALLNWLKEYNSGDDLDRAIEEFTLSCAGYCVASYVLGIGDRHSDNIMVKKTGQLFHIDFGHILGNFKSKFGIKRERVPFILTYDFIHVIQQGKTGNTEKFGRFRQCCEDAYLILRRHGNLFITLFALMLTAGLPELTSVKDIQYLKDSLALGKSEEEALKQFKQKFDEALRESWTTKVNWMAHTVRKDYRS
Sequence (P27986 whole entry partner): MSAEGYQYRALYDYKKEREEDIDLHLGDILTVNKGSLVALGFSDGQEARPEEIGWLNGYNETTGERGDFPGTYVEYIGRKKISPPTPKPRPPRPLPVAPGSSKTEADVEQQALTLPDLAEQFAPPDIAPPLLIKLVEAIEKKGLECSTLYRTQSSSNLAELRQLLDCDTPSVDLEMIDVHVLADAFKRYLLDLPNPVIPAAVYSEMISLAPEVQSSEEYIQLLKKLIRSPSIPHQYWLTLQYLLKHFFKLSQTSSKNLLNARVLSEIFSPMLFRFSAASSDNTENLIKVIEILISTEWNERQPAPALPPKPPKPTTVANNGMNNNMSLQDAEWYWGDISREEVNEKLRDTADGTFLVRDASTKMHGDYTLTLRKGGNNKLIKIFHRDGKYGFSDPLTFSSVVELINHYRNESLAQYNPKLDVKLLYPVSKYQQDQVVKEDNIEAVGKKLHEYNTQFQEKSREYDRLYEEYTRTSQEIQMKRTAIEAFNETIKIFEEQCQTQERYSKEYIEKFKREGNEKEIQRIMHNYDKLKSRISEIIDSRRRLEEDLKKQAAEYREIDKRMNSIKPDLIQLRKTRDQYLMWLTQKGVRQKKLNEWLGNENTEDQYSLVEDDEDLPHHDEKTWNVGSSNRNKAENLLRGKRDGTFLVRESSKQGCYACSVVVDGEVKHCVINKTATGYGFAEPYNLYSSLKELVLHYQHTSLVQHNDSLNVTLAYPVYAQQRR
method_summary: TR-FRET enzymatic activity assay, PI3Kβ
Format: biochemical
particulars: Table 2; TR-FRET, 2x Km ATP, 30 minutes at 25° C.
pIC50: −log10 of the molar value.
Class definitions on pIC50: low = under 7, moderate = from 7 up to 8, high = 8 and over

Kindly state the category for this molecule: Cc1nc(N)nc(N[C@H](c2nc3cccc(Cl)c3c(=O)n2-c2cn[nH]c2)C2CC2)c1C#N
high

Do the same for CC[C@H](Nc1ncnc2sccc12)c1nc2c(Cl)ccc(Cl)c2c(=O)n1-c1cc[nH]n1 please
low

Likewise for C[C@H](Nc1ncnc(N)c1C#N)c1nc2cccc(Cl)c2c(=O)n1-c1cc(C2CC2)[nH]n1 ?
low

More entries:
Form field 'band' for O=c1c2c(Cl)cccc2nc([C@H](CO)Nc2ncnc3scnc23)n1-c1cn[nH]c1
moderate

Now consider Nc1nc(N)c(Cl)c(N[C@H](c2nc3cccc(Cl)c3c(=O)n2-c2cc(Cl)[nH]n2)C2CC2)n1 .
low

Again, but for N#Cc1c(N)nc(N)nc1N1CCC[C@H]1c1nc2cccc(Cl)c2c(=O)n1-c1cc[nH]n1
moderate
